B1: CCND1 (parent)
chain: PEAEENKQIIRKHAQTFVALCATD

- Variants of: B1
- test_details: protein stability index of a GFP-peptide fusion (GPS, HEK-293T) (PSI 1-6); higher = more stable;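 further: lentivirally expressed fusions sorted by FACS into six bins by GFP to DsRed ratio, PSI derived from sequencing read proportions per bin multiplied by bin number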
- measurement_conditions: c terminus: a fixed tail appended
The threshold is inclusive: protein stability index of exactly 3 counts as condition met; values below receive condition not met.

{"mutation_id": "V18P", "class": "condition met"}
{"mutation_id": "I9T", "class": "condition not met"}
{"mutation_id": "T23R", "class": "condition not met"}
{"mutation_id": "E4M", "class": "condition not met"}

Asked: Is reported protein stability index greater than or equal to 3 here: `A14C`
Given back: condition not met

Asked: Is reported protein stability index greater than or equal to 3 here: `P1V`
Given back: condition not met

Asked: Is reported protein stability index greater than or equal to 3 here: `C21A`
Given back: condition met
